System: PRMT1 (protein arginine N-methyltransferase 1)
Test: PRMT1 binders on small-molecule microarrays, primary screen, biochemical, small-molecule microarray, 635 nm fluorescence (AID 1088);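 also: binding of Prmt1 protein to compounds spotted on small-molecule microarray slides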
Conditions: small-molecule microarray binding, higher = more signal
parameter: composite z-score

CC(=O)NCCCC[C@@H]1NC(=O)[C@@H]2C[C@H](C(=O)NCCCCCNC(=O)CS)[C@H](c3cccc(OCCO)c3)N2C1=O : 1.18
C=CC(=C)[C@H]1Oc2ccccc2S(=O)(=O)N2CCC[C@@H]12 : -1.3

For the next question, use this molecule.
// recorded composite z-score for "COCCOC(=O)N1C(=O)[C@@]2(c3cc(C#CC4(O)CCCCCC4)ccc31)[C@H](c1ccc(OCCO)cc1)N1[C@H](c3ccccc3)[C@H](c3ccccc3)OC(=O)[C@H]1[C@@H]2C(=O)N1CCN(c2ncccn2)CC1" : 1.56
